assaySystem: Muscarinic acetylcholine receptor M1 (Homo sapiens) (UniProt P11229)
Sequence (whole entry): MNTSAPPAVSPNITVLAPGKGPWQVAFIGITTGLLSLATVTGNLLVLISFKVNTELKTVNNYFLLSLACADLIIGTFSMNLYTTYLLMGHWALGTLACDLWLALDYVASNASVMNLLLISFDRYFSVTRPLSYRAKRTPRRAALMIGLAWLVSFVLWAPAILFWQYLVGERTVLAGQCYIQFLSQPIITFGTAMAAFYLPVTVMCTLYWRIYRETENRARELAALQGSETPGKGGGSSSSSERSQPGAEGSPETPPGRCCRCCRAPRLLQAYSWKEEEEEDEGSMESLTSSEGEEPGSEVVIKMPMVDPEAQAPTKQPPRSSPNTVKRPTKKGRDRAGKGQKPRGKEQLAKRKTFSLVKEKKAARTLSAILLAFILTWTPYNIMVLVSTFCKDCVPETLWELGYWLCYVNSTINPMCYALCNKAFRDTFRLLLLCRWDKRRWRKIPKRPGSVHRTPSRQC
assayInfo: Displacement of [3H]NMS from recombinant human mAChR1 expressed in Flp-In-CHO cells after 1 hr by microbeta scintillation counting analysis
Type: cell-based
Reported pKb values for the following compounds.
I only need the number, thanks.

                      structuresmilesstring                               assaysystem  experimentalvalue
0  Cc1c(Cc2ccc(-c3cnn(C)c3)nc2)cc2c(=O)n([C@H]3CCCC[C@@H]3O)cnc2c1C  Muscarinic acetylcholine receptor M1 (Homo sapiens) (UniProt P11229)                5.1
1   COc1ccc(Cn2cc(C(=O)O)c(=O)c3ccccc32)cc1  Muscarinic acetylcholine receptor M1 (Homo sapiens) (UniProt P11229)                4.8
2  Cc1cc2ncn([C@H]3CCCC[C@@H]3O)c(=O)c2cc1Cc1ccc(-c2cnn(C)c2)nc1  Muscarinic acetylcholine receptor M1 (Homo sapiens) (UniProt P11229)                5.2
3  Cn1cc(-c2ccc(Cc3cc4c(=O)n([C@H]5CCCC[C@@H]5O)cnc4c4ccccc34)cn2)cn1  Muscarinic acetylcholine receptor M1 (Homo sapiens) (UniProt P11229)                5.8

Consider the additional compound presented here.
Give the measured pKb of `Cn1cc(-c2ccc(Cc3ccc4ncn([C@H]5CCCC[C@@H]5O)c(=O)c4c3)cn2)cn1` .
4.3

----------
assaySystem: Muscarinic acetylcholine receptor M2 (Homo sapiens)
Sequence (P08172 whole entry): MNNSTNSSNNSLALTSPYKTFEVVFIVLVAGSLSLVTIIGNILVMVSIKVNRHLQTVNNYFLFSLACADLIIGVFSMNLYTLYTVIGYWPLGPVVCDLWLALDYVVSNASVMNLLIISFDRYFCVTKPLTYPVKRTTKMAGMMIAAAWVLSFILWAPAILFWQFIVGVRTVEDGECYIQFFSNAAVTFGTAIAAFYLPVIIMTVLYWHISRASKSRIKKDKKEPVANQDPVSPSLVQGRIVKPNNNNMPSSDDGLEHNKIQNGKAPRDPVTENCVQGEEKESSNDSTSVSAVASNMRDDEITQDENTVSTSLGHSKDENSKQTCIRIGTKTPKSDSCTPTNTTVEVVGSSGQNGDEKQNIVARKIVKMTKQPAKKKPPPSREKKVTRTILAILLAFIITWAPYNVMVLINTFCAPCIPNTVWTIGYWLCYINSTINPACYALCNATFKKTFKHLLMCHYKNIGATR
assayInfo: Displacement of [3H]NMS from wild-type human mAChR2 expressed in Flp-In-CHO cell membranes in presence of mAChR2 agonist acetylcholine after 90 mins by scintillation counting analysis
readoutKind: Ki (µM)
Field: numeric (µM). Do not append units.

Give the measured Ki of `COc1nc2sc(C(=O)NC3CC3)c(N)c2c(C)c1Cl` .
3.16

----------
assaySystem: Glycine receptor subunit alpha-1 (Homo sapiens)
Sequence (P23415 whole entry): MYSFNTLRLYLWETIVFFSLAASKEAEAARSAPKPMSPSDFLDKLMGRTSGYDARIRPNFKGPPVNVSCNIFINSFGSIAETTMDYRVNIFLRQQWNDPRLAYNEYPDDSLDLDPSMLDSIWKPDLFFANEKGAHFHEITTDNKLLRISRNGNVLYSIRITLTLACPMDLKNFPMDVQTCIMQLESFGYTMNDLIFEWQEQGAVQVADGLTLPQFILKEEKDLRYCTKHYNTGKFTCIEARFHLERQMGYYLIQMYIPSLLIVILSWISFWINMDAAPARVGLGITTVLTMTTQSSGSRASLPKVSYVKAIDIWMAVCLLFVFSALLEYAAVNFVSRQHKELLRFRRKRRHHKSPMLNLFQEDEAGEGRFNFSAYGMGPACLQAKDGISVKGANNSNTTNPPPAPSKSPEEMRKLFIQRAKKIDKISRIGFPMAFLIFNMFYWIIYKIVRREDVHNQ
assayInfo: Positive allosteric modulatory activity at recombinant human glycine alpha1 receptor expressed in HEK293 cells assessed as potentiation of glycine-induced response at -50 mV holding potential in presence of fructose by whole cell patch clamp method
readoutKind: pEC50
Units for pEC50: none; it is -log10 of a concentration expressed in mol/L.

API: value(readout=pEC50, system=Glycine receptor subunit alpha-1 (Homo sapiens)) for record `O=C(CO)[C@@H](O)[C@H](O)[C@H](O)CO`
4.90
